Read-out: Matrix Metallopeptidase 1 (MMP1), MMP1 (gene 4312)
Experiment Summary: BSK_hDFCGF_MMP1: BioMAP Diversity Plus: hDFCGF Assay for Matrix Metallopeptidase 1 (MMP1) Biomarker Activity (AID 2283064)
Test Parameters: primary human foreskin fibroblasts; actives raise or lower the signal
Activity calls are given as the source filed them. How the source made its calls: active means hit-call score of the fitted dose curve at least 0.9, where 1 is the maximum; inactive means score below 0.9.
Outcome codes: active, inactive

• OCCNCCO = inactive
• COc1cc2c(c(OC)c1OC)-c1ccc(OC)c(=O)cc1[C@@H](NC(C)=O)CC2 = active
• CC(C)c1nnc2ccc(-c3ocnc3-c3cc(F)ccc3F)cn12 = active
• COS(C)(=O)=O = inactive
• CCCCCCCC/C=C\CCCCCCCC(=O)OC[C@@H](O)[C@H]1OC[C@H](O)[C@H]1O = inactive
• OCCC(F)(F)C(F)(F)C(F)(F)C(F)(F)F = inactive
• C[C@]12C=CC(=O)C=C1CC[C@H]1[C@@H]3C[C@@H](O)[C@](O)(C(=O)CO)[C@@]3(C)C[C@H](O)[C@@]12F = active
• CCCCN1C(=O)[C@@H]([C@H](O)C2CCCCC2)NC(=O)C12CCN(Cc1ccc(Oc3ccc(C(=O)O)cc3)cc1)CC2 = active
• CCc1cccc(CC)c1N = inactive
• O=S(=O)(O)CCC(F)(F)C(F)(F)C(F)(F)C(F)(F)C(F)(F)C(F)(F)F = inactive
• OC(CCl)CCl = inactive

* * *

Experiment Summary: ATG_BRE_CIS: Attagene CIS-FACTORIAL HepG2 Assay for human Bone Morphogenetic Protein (BMP) Response Element (BRE) (AID 2282933)
Test Parameters: HepG2 BMP response element reporter, Attagene transcription factor profiling; actives raise or lower the signal
Procedure: ATG_CIS is a cell-based, multiplexed-readout assay that uses HepG2, a human liver cell line, with measurements taken at 24 hours after chemical dosing in a 24-well plate.ATG_BRE_CIS is one of 52 assay component(s) measured or calculated from the ATG_CIS assay. […] This assay endpoint, ATG_BRE_CIS, was analyzed with bidirectional fitting relative to DMSO as the negative control and baseline of activity. […]
The source made the active and inactive calls. Rule for the calls: active = hit-call score of the fitted dose curve at least 0.9, where 1 is the maximum; inactive = score below 0.9.
Outcome codes: t (active), f (inactive)

* CCn1nc(C)c2c1C(=O)NCC(c1ccc(O)cc1)=N2 | f
* C[C@@H](Oc1ccc(CNC(=O)c2cccnc2Oc2ccc3c(c2)OCO3)c(F)c1)C(=O)O | f
* c1ccc2c(c1)-c1cccc3c1c-2cc1ccccc13 | f
* O=C(O)c1cccc(C[C@@H]2COc3ccc(OCc4nc5cc(F)ccc5s4)cc3[C@@H]2O)c1 | f
* COc1cc2c(c(OC)c1OC)-c1ccc(OC)c(=O)cc1[C@@H](NC(C)=O)CC2 | t
* CCCc1ccccc1 | f
* CCCCCCCC1CCC(=O)O1 (stereo unspecified) | f
* FC(F)(F)COC(OCC(F)(F)F)OCC(F)(F)F | f
* CC(C)CCCCCCOC(=O)C1CCCCC1C(=O)OCCCCCCC(C)C (stereo unspecified) | f
* OCCOCCOCCO | f
* CC[C@H](C)C(=O)O[C@H]1C[C@H](O)C=C2C=C[C@H](C)[C@H](CC[C@@H](O)C[C@@H](O)CC(=O)O)[C@H]21 | f

* * *

Experiment Summary: CCTE_Shafer_MEA_acute_burst_percentage_mean: CCTE's Neural Acute Assay for Percentage of Spikes in a Burst, Shafer Lab (AID 2284017)
Activity calls are given as the source filed them. The calls were made as follows: active = hit-call score of the fitted dose curve at least 0.9, where 1 is the maximum; inactive = score below 0.9.
Outcome codes: t (active), f (inactive)

* c1ccc2cc3ccccc3cc2c1 | f
* COCc1nnc(-c2ccc[n+]([O-])c2)n1-c1c(Cl)c(Cl)cc2[nH]c(=O)c(=O)[nH]c12 | t
* C=CCc1cc(S(=O)(=O)c2ccc(O)c(CC=C)c2)ccc1O | f
* CCCCCCCC/C=C\CCCCCCCC(=O)OC[C@@H](O)[C@H]1OC[C@H](O)[C@H]1O | f
* CCCCC(CC)C(=O)OCCOCCOCCOC(=O)C(CC)CCCC (configuration not stated) | f
* Cc1ncc([C@@H](CCCCCCc2ccc3c(n2)NCCC3)CC(=O)O)cn1 | f
* O=S(=O)(O)c1ccc(N=Nc2c(O)ccc3cc(S(=O)(=O)O)ccc23)cc1 | f
* CC[C@H](C)C(=O)O[C@H]1C[C@H](O)C=C2C=C[C@H](C)[C@H](CC[C@@H](O)C[C@@H](O)CC(=O)O)[C@H]21 | f
* c1ccc(C(O[C@@H]2CCCN(CCc3ccc4c(c3)OCO4)C2)c2ccccc2)cc1 | f
* OCc1ccccc1 | f
* COc1cc2c(c(OC)c1OC)-c1ccc(OC)c(=O)cc1[C@@H](NC(C)=O)CC2 | f
* CCCCCCCC1CCC(=O)O1 (configuration not stated) | t
